# STUDY_TARGET: hGPR17L (Homo sapiens, UniProt Q13304)
# Sequence (Q13304 whole entry): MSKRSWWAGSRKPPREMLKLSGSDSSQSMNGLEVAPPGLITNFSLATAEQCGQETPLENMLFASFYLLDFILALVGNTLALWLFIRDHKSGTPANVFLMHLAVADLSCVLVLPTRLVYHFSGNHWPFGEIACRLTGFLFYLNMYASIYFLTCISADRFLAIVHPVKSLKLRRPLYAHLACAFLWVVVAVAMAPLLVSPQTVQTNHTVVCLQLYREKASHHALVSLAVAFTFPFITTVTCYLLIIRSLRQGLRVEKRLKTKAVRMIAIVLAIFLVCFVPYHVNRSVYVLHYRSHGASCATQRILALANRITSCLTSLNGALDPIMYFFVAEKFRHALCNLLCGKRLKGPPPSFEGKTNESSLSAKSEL
# EXPERIMENTAL_PROTOCOL: Calcium mobilization assay
# Format: cell-based
# SETUP_CONDITIONS: IC50 (antagonist mode), assay development; stimulated with […] MDL (~EC80)
MEASUREMENT_NAME: IC50 (µM)
One number for each entry, in µM.

Lab note: need IC50 for O=C(O)c1ccc(OCCCc2ccc(OCCCCOC3CCCCC3)cc2)c(C(=O)NC2CCCC(C(=O)O)C2)c1 (stereo not shown) on hGPR17L (Homo sapiens, UniProt Q13304), anyone have it? 8.1

---

# STUDY_TARGET: hGPR17L (Homo sapiens, UniProt Q13304)
# EXPERIMENTAL_PROTOCOL: Calcium mobilization assay
# Assay type: cell-based
MEASUREMENT_NAME: pEC50
Give bare numbers, as −log10 of the molar value.

Entry O=C(O)CCc1c(C(=O)O)[nH]c2cc(Cl)cc(Cl)c12 has what pEC50? 6.55

---

# STUDY_TARGET: hGPR17L (Homo sapiens, UniProt Q13304)
# EXPERIMENTAL_PROTOCOL: Calcium mobilization assay
# Assay type: cell-based
# SETUP_CONDITIONS: 1321-N1, read-out: % Efficacy Avg ± SEM
Just a reminder that ties go to rule not met: only Emax strictly below 90% counts as rule met.

| COMPOUND | CATEGORY |
| --- | --- |
| Cc1ccc(C(=O)NC2CCCc3c2[nH]c2c(Cl)cccc32)cc1 (stereo not shown) [Compd 17] | rule met |
| COc1ccc(C(=O)NC2CCCc3c2[nH]c2ccccc32)cc1OC (stereo not shown) [Compd 18] | rule met |
| Cc1cc([N+](=O)[O-])ccc1C(=O)NC1CCCc2c1[nH]c1c(Cl)cccc21 (stereo not shown) [Compd 11] | rule met |
| O=C(NC1CCCc2c1[nH]c1c(Cl)cccc21)c1ccc2c(c1)OCO2 (stereo not shown) [Compd 3] | rule met |
| CS(=O)(=O)c1ccc(C(=O)NC2CCCc3c2[nH]c2c(Cl)cccc32)cc1[N+](=O)[O-] (stereo not shown) [Compd 7] | rule not met |
| COc1ccc(C(=O)NC2CCCc3c2[nH]c2c(C)ccc(C)c32)cc1OC (stereo not shown) [Compd 23] | rule met |

Quick check: does O=C(NC1CCCc2c1[nH]c1c(Cl)cccc21)c1ccc(F)c([N+](=O)[O-])c1 (stereo not shown) [Compd 13] have Emax under 90%? rule not met

Now try COc1ccc(C(=O)NC2CCCc3c2[nH]c2c(Br)cccc32)cc1OC (stereo not shown) [Compd 19] . rule not met

---

For each entry below, report its IC50 value.
# STUDY_TARGET: hGPR17L (Homo sapiens, UniProt Q13304)
# EXPERIMENTAL_PROTOCOL: Calcium mobilization assay
# Format: cell-based
# SETUP_CONDITIONS: Calcium Assay IC50(μM) Avg ± SEM, Table 2; reported only when efficacy ≥75%
Numbers only, in µM.

Example entries and their recorded answers appear below.
| COMPOUND | IC50 (µM) |
| --- | --- |
| COc1ccc(C(=O)NC2CCCc3c2[nH]c2c(Cl)cccc32)cc1OC (stereo not drawn) | 5.47 |
| O=C(NC1CCCc2c1[nH]c1c(Cl)cccc21)C(NS(=O)(=O)c1cccs1)c1ccccc1 (stereo not drawn) | 7.94 |

Item under review: COc1ccc(C(=O)NC2CCCc3c2[nH]c2c(Cl)cccc32)cc1C (stereo not drawn) . Reported IC50? 10.7

Taken from paper PMC12459614.
